Tested on: HL-60(TB) leukemia
PROTOCOL TEXT: NCI tumour cell line growth inhibition, 48 h
MEASURED METRIC: TGI

[
  {
    "CHEM SMILES": "COc1ccc(OC)c(/C=N/N=C2\\C(=O)Nc3c(Cl)cc(Cl)cc32)c1",
    "TARGET OR SYSTEM": "HL-60(TB) leukemia",
    "MEASURED METRIC": "TGI",
    "MEASURED VALUE": "> 100 µM"
  },
  {
    "CHEM SMILES": "O=C1COCCN1c1ccc(NCc2cn(C(=O)c3ccc(Cl)cc3)c3ccccc23)cc1",
    "TARGET OR SYSTEM": "HL-60(TB) leukemia",
    "MEASURED METRIC": "TGI",
    "MEASURED VALUE": "20.9 µM"
  },
  {
    "CHEM SMILES": "Cc1ccc(Nc2cn(COCc3ccccc3)c(=O)[nH]c2=O)cc1",
    "TARGET OR SYSTEM": "HL-60(TB) leukemia",
    "MEASURED METRIC": "TGI",
    "MEASURED VALUE": "> 100 µM"
  },
  {
    "CHEM SMILES": "COc1nc(OC)nc(Sc2ccc(Sc3ccc(Sc4nc(OC)nc(OC)n4)cc3)cc2)n1",
    "TARGET OR SYSTEM": "HL-60(TB) leukemia",
    "MEASURED METRIC": "TGI",
    "MEASURED VALUE": "> 100 µM"
  },
  {
    "CHEM SMILES": "COc1ccccc1Cn1[nH]c(=O)c2cc([N+](=O)[O-])ccc21",
    "TARGET OR SYSTEM": "HL-60(TB) leukemia",
    "MEASURED METRIC": "TGI",
    "MEASURED VALUE": "> 100 µM"
  },
  {
    "CHEM SMILES": "CCOC(=O)/C(=N/Nc1ccc(Cl)cc1)N1C(=S)C=C(C)NN(C)C1=S",
    "TARGET OR SYSTEM": "HL-60(TB) leukemia",
    "MEASURED METRIC": "TGI",
    "MEASURED VALUE": "> 100 µM"
  },
  {
    "CHEM SMILES": "Cc1nc2nn(C)cc2c(=O)n1/N=C/c1ccccc1",
    "TARGET OR SYSTEM": "HL-60(TB) leukemia",
    "MEASURED METRIC": "TGI",
    "MEASURED VALUE": "> 100 µM"
  },
  {
    "CHEM SMILES": "S=C(Nc1cccc(C2(N3CCCCC3)CCCCC2)c1)Nc1cccc(C2(N3CCCCC3)CCCCC2)c1",
    "TARGET OR SYSTEM": "HL-60(TB) leukemia",
    "MEASURED METRIC": "TGI",
    "MEASURED VALUE": "38.2 µM"
  },
  {
    "CHEM SMILES": "[O-][n+]1c2cc(CN3CCOCC3)c(CN3CCOCC3)cc2[n+]([O-])c2c(O)cccc21",
    "TARGET OR SYSTEM": "HL-60(TB) leukemia",
    "MEASURED METRIC": "TGI",
    "MEASURED VALUE": "10.9 µM"
  },
  {
    "CHEM SMILES": "CC(C)(C)N=c1n(C(C)(C)C)oc(=O)n1-c1ccccc1",
    "TARGET OR SYSTEM": "HL-60(TB) leukemia",
    "MEASURED METRIC": "TGI",
    "MEASURED VALUE": "> 50 µM"
  }
]

Reference source: PubChem BioAssay (NCI)
